molecular target: UniProt:P14842
Sequence (P14842 whole entry): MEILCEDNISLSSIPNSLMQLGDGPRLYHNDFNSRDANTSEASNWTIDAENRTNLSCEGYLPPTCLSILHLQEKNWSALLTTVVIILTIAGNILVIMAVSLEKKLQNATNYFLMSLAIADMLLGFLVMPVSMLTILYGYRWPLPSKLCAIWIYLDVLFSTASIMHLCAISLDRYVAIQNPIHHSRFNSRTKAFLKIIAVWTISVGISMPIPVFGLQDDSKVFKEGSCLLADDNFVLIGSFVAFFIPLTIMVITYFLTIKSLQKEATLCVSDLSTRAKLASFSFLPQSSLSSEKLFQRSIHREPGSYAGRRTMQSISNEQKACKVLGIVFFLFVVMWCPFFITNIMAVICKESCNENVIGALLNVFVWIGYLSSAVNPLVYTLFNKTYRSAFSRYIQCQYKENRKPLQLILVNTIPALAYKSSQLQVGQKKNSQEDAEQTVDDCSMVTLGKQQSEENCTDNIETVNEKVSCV
valueKind: pKi
pKi field: float, defined as -log10 of concentration (mol/L).

INPUT: Enter reported pKi observed with UniProt:P14842 for O=C(c1ccc(F)cc1)C1CCN(CCC2CC3=CC=CC3C2=O)CC1 (stereo unspecified)
OUTPUT: 8.15
